Here we list molecules with their recorded GI50 when tested on SK-MEL-2 melanoma.
ASSAY READOUT: GI50

>>> measurement("CCOC(=O)C1=C(C)N=C2SC=C(c3ccccc3)N2[C@H]1c1cn[nH]c1-c1ccc(Cl)cc1")
"6.21 µM"
>>> measurement("O=C1c2ccccc2-c2c1c1ccc([N+](=O)[O-])cc1c(=O)n2CCCN1CCOCC1")
"> 61.2 µM"
>>> measurement("CCN(Cc1ccccc1F)c1ccc(CO)c(Cl)c1")
"1.81 µM"

----------
test system: SW-620 colon; assay: NCI tumour cell line growth inhibition, 48 h
Parameter TGI: see the listing below.
ASSAY READOUT: TGI

>>> measurement("Cc1cc(S(=O)(=O)O)ccc1N=Nc1c(O)ccc2ccccc12")
"> 100 µM"
>>> measurement("CCOC(=O)c1nnsc1NC(=O)NN")
"> 100 µM"
>>> measurement("CCOC(=O)C(Cc1c(C=O)[nH]c2ccccc12)(NC(=O)c1ccccc1)C(=O)OCC")
"32.1 µM"
>>> measurement("Cn1c(-c2ccccc2)c2cc3nc4ccccc4nc3cc2c1-c1ccccc1")
"92.5 µM"
>>> measurement("COc1cc2cc(c1Cl)N(C)C(=O)C[C@H](OC(=O)[C@H](C)N(C)C(=O)CCS)C[C@]1(C)O[C@H]1[C@H](C)[C@@H]1C[C@@](O)(NC(=O)O1)[C@H](OC)/C=C/C=C(\\C)C2")
"> 50 µM"
>>> measurement("Cc1nc2ccc(Nc3nc(Cl)nc(Nc4ccc(F)cc4)n3)cc2n1Cc1ccccc1")
"35 µM"
>>> measurement("COc1ccc(OC)c(C(=O)c2cccc(C(=O)c3cc(OC)ccc3OC)n2)c1")
"> 100 µM"
>>> measurement("CN1CCC(SC2Cc3cc(Cl)ccc3Sc3ccccc32)CC1 (configuration not stated)")
"30.9 µM"
>>> measurement("O=C1C(c2ccc([N+](=O)[O-])cc2)=[N+]([O-])c2ccc([N+](=O)[O-])cc21")
"> 100 µM"
>>> measurement("CCCCCNC(=O)c1cc2cc(CCl)ccc2oc1=O")
"> 100 µM"
>>> measurement("COc1ccc(C(=O)c2c(C(C(=O)c3ccc(OC)cc3)C(=O)c3ccc(OC)cc3)n(C(=O)c3ccc(OC)cc3)c3ccccc23)cc1")
"> 100 µM"
>>> measurement("CN(C)c1ccc(/C=C(\\C#N)c2nc(-c3cc4ccccc4oc3=O)cs2)cc1")
"> 50 µM"
